pIC50: −log10 of the molar value.
# pIC50 measurements, system: BTK kinase (Homo sapiens)
# Sequence (Q06187 whole entry): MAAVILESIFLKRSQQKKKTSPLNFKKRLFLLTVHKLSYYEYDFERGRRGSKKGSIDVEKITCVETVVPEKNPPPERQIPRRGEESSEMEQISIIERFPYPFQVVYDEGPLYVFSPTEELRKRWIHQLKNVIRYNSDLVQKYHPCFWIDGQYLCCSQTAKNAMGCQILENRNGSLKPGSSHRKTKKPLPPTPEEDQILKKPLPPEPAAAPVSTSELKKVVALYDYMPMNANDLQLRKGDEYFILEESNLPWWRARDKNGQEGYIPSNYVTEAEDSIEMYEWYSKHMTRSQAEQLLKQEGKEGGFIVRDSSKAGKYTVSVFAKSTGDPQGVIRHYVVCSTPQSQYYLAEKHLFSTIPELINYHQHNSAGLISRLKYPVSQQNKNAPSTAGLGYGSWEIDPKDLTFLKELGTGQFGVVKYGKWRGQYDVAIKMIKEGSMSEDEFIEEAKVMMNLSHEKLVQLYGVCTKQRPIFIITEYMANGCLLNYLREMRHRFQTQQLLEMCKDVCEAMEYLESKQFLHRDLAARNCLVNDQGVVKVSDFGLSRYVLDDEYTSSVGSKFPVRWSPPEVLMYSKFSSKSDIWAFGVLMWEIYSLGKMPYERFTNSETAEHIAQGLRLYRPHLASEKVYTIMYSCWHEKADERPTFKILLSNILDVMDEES

COc1ccc(F)cc1C(=O)NCc1ccc(-c2ncc(-c3ccc4cn[nH]c4n3)c3[nH]nc(N)c23)cc1 ... 8.30 to 9.00
COc1ccc(F)cc1C(=O)NCc1ccc(-c2ncc(-c3ccc(C4COC4)cn3)c3[nH]nc(N)c23)cc1 ... ≥ 9.00
COc1ccc(F)cc1C(=O)NCc1ccc(-c2ncc(-c3ccc4nccn4n3)c3[nH]nc(N)c23)cc1 ... 8.30 to 9.00
COc1ccc(F)cc1C(=O)NCc1ccc(-c2ncc(-c3ncc(C)cn3)c3[nH]nc(N)c23)cc1 ... ≥ 9.00
COc1ccc(F)cc1C(=O)NCc1ccc(-c2ncc(-c3nc4cnccn4n3)c3[nH]nc(N)c23)cc1 ... 8.30 to 9.00
COc1ccc(F)cc1C(=O)NCc1ccc(-c2ncc(-c3ccc(C(=O)N4C[C@@H](C)O[C@H](C)C4)cn3)c3[nH]nc(N)c23)cc1 ... 8.30 to 9.00

Here's the next entry for you.
Req: # return pIC50 for COc1ccc(F)cc1C(=O)NCc1ccc(-c2nc(C(C)C(F)(F)F)cc3[nH]nc(N)c23)cc1 (stereo not shown) , test system: BTK kinase (Homo sapiens)
Resp: 7.30 to 8.30

====

Consider the following compounds and their measured IC50 readings.
- target-of-assay: BTK T474I (Homo sapiens, UniProt Q06187, T474I)
- Sequence (Q06187 whole entry T474I): as the sequence (Q06187 whole entry) above, with T474I counted along it
- test: Kinase activity inhibition assay (HTRF TK Kit)

COc1ccc(F)cc1C(=O)NCc1ccc(-c2ncc(-c3ccccn3)c3[nH]nc(N)c23)cc1 ... 50 to 500 nM
COc1ccc(F)cc1C(=O)NCc1ccc(-c2ncc(-c3ccc(C)cn3)c3[nH]nc(N)c23)cc1 ... 50 to 500 nM
CCN1CCn2nc(-c3cnc(-c4ccc(CNC(=O)c5cc(F)ccc5OC)cc4)c4c(N)n[nH]c34)cc2C1 ... 5 to 50 nM

Req: # return IC50 for COc1ccc(F)cc1C(=O)NCc1ccc(-c2nc(C(F)F)c(-c3ncccn3)c3[nH]nc(N)c23)cc1 , test system: BTK T474I (Homo sapiens, UniProt Q06187, T474I)
Resp: 50 to 500 nM

====

- target-of-assay: BTK C481S (Homo sapiens, UniProt Q06187, C481S)
- Sequence (Q06187 whole entry C481S): as the sequence (Q06187 whole entry) above, with C481S counted along it
- test: Kinase activity inhibition assay (HTRF TK Kit)
Consider the following compounds and their measured IC50 readings.

COc1ccc(F)cc1C(=O)NCc1ccc(-c2ncc(-c3cc4ncccn4n3)c3[nH]nc(N)c23)cc1 ... ≤ 1 nM
COc1ccc(F)cc1C(=O)NCc1ccc(-c2ncc(-c3ccn(C)n3)c3[nH]nc(N)c23)cc1 ... ≤ 1 nM
COc1ccc(F)cc1C(=O)NCc1ccc(-c2ncc(-c3ncc(C(F)(F)F)cn3)c3[nH]nc(N)c23)cc1 ... 1 to 5 nM
COc1ccc(F)cc1C(=O)NCc1ccc(-c2nc(C3CCOCC3)cc3[nH]nc(N)c23)cc1 ... 1 to 5 nM
COc1ccc(F)cc1C(=O)NCc1ccc(-c2nc(C(C)C(F)(F)F)cc3[nH]nc(N)c23)cc1 (stereo not shown) [Example 1] ... 5 to 50 nM
COc1ccc(F)cc1C(=O)NCc1ccc(-c2ncc(-c3nccn4cccc34)c3[nH]nc(N)c23)cc1 ... 1 to 5 nM

Here's the next entry for you.
Req: Given the compound CCN1CCc2nc(-c3cnc(-c4ccc(CNC(=O)c5cc(F)ccc5OC)cc4)c4c(N)n[nH]c34)sc2C1 , write its reported IC50.
Resp: 1 to 5 nM

Data provenance is patent EP4741392A1.
